- Tested on: RARb homodimer (NR concentration 270 nM)
- PROCEDURE_SUMMARY: PBM binding z-score (relative to random genomic background probes); higher = stronger binding; sequences stand for … in GC…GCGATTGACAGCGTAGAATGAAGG
Assign yes (1) whenever PBM binding z-score does not fall below 3; assign no (0) whenever it does.

>>> assigned_class("CCTACTGGGCCATTCAGAGGTCCTTGATCATATG")
"no (0)"
>>> assigned_class("CGTCCAAGGTCAAAGGTCAGTGTAGAGATGACGG")
"yes (1)"
>>> assigned_class("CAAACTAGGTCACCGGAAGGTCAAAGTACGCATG")
"yes (1)"

Prompt: Evaluate "TCTGCTAGGTCAACGATGCTCAGCTAATCTGCTA" : PBM binding z-score at minimum 3?
Completion: no (0)

Prompt: Evaluate "CGTCAAAGTTCATCTAAGGTAACGTAAAGCACGC" : PBM binding z-score at minimum 3?
Completion: yes (1)

Prompt: Evaluate "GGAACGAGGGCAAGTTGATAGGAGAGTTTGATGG" : PBM binding z-score at minimum 3?
Completion: no (0)

Prompt: Evaluate "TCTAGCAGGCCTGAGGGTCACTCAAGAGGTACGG" : PBM binding z-score at minimum 3?
Completion: no (0)

Prompt: Evaluate "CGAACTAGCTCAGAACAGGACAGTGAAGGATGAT" : PBM binding z-score at minimum 3?
Completion: no (0)

Prompt: Evaluate "CGACCTAGGTCAGAACAGGACAGTGAAGGATGAT" : PBM binding z-score at minimum 3?
Completion: no (0)

Prompt: Evaluate "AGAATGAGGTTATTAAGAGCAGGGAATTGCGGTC" : PBM binding z-score at minimum 3?
Completion: no (0)

Prompt: Evaluate "ACTCGGAGGACCAAGGTCAGAGCTACGCCAGTGA" : PBM binding z-score at minimum 3?
Completion: no (0)

---

- Tested on: FXR:RXRa (NR concentration 270 nM, RXRa partner concentration 90 nM)
- PROCEDURE_SUMMARY: PBM binding z-score (relative to random genomic background probes); higher = stronger binding; sequences stand for … in GC…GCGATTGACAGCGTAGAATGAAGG
QUANTITY_MEASURED: PBM binding z-score
Numbers only.

// solved cases for PBM binding z-score follow
>>> quantitative_result("CGAACTAGGTCAGAACCGGACAGTGAAGGATGAT")
0.841
>>> quantitative_result("TGAATGAGGTTATAAGATCAGGGCACGTTGCAAA")
1.49

Here is another sequence to look at.
Prompt: Value wanted: PBM binding z-score (FXR:RXRa (NR concentration 270 nM, RXRa partner concentration 90 nM)) of entry "GGAACGAGGGCATGCGAGTTGATAGCATGGCGAT"
Completion: 0.758

---

- System: PPARg:RXRa DBDmut IVT, anti-RXR (DBD mutation: RXRa K156A/R161A, NR concentration 270 nM, RXRa partner concentration 90 nM)
- PROCEDURE_SUMMARY: PBM binding z-score (relative to random genomic background probes); higher = stronger binding; sequences stand for … in GC…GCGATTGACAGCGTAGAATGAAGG
QUANTITY_MEASURED: PBM binding z-score
Numbers only.

>>> quantitative_result("ATTTCTAGGTAAAAGTTCAGTGAATCCCGAGGAT")
4.32

Answer for every listed entry: what is its PBM binding z-score? The entries follow.
1. CATACATGGTCAGCTAGGCCAGAGTAGGGACGGC
2. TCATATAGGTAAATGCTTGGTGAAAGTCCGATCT
3. AATACCGGGTCATCGTAGGCCAGAGTACGCACAG
4. GCTCGGAGGACAAGGTGAGAGCTTTGTCCGTAGA
5. CCGAGTAGGTTATGGGGCATTCATGCAACGGTGA

Completion:
1. -0.304
2. 4.12
3. 2.9
4. -0.575
5. 3.37

Answer for every listed entry: what is its PBM binding z-score? The entries follow.
1. TCGTATAGGTAATACAGGTGAAAGTCGGCATCTA
2. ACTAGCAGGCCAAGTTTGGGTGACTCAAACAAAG
3. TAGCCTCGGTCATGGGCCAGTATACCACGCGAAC
4. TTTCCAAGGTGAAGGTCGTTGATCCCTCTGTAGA
5. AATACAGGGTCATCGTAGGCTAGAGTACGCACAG
6. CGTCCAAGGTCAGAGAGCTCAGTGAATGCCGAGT

Completion:
1: 2.32; 2: 0.661; 3: -0.58; 4: 1.63; 5: 3.07; 6: 2.67

Answer for every listed entry: what is its PBM binding z-score? The entries follow.
1. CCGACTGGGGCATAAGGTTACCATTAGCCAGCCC
2. GATACAGGGTCAGCTAGAGGCGAGAGTATGGAAA
3. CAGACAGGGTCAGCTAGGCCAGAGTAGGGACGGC

Completion:
1: 3.03; 2: 1.45; 3: 0.343

---

- System: PPARg DBDmut:RXRa IVT, anti-PPARg (DBD mutation: PPARg1 K132A/R137A, NR concentration 270 nM, RXRa partner concentration 90 nM)
- PROCEDURE_SUMMARY: PBM binding z-score (relative to random genomic background probes); higher = stronger binding; sequences stand for … in GC…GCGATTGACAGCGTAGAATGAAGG
Would you mind telling me the reported PBM binding z-score of each entry?
Answers are plain numbers.

Answer for every listed entry: what is its PBM binding z-score? The entries follow.
1. TTACCAAGGTGAAATGTCGTTGATGCACGCCTTG
2. TCGAGTTGGTCAAAGGTCACACACTCGAAATGCG
3. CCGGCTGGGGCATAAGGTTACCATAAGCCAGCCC
4. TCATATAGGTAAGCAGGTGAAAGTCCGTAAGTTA
5. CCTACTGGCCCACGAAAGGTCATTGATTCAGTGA
6. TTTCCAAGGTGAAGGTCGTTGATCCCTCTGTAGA
7. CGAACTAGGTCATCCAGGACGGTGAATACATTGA

Completion:
[0.312, 1.98, -2.71, 0.357, -0.814, -0.24, 2.02]

---

- Test system: LXRa homodimer (NR concentration 270 nM)
- PROCEDURE_SUMMARY: PBM binding z-score (relative to random genomic background probes); higher = stronger binding; sequences stand for … in GC…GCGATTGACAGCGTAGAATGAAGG
QUANTITY_MEASURED: PBM binding z-score

// solved cases for PBM binding z-score follow
>>> result("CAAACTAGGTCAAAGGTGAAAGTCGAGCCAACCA")
0.751
>>> result("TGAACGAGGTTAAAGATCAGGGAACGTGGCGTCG")
-0.236

Here is another sequence to look at.
Prompt: What measured PBM binding z-score goes with "TAGCCTAAGTCATTCAGGGGCCAGTATAGAAAGC" ?
Completion: -0.319

---

- Tested on: PPARg DBDmut:RXRa IVT, anti-PPARg (DBD mutation: PPARg1 K132A/R137A, NR concentration 270 nM, RXRa partner concentration 90 nM)
- PROCEDURE_SUMMARY: PBM binding z-score (relative to random genomic background probes); higher = stronger binding; sequences stand for … in GC…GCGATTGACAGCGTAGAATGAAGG
Assign met whenever PBM binding z-score does not fall below 0.8; assign not met whenever it does.

>>> assigned_class("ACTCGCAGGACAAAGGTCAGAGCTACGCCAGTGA")
"not met"
>>> assigned_class("TCGTGTAGATCAATAGAGGTTAAGAAAGTGCGCT")
"not met"
>>> assigned_class("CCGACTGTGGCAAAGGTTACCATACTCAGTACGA")
"not met"

Prompt: Evaluate "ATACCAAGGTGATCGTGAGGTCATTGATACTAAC" : PBM binding z-score at minimum 0.8?
Completion: not met

Prompt: Evaluate "CCTTATGGGTCACGAGGTTATAGCACGACGAGCG" : PBM binding z-score at minimum 0.8?
Completion: met

Prompt: Evaluate "GGAACGAGGGCAACGTTGATAGCATCTGTCGACG" : PBM binding z-score at minimum 0.8?
Completion: not met

Prompt: Evaluate "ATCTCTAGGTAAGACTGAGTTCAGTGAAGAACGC" : PBM binding z-score at minimum 0.8?
Completion: not met

Prompt: Evaluate "TCTAGTTTGTCACGGAGGTCACACACGACGGGTA" : PBM binding z-score at minimum 0.8?
Completion: met

Prompt: Evaluate "CAAACAGGGTCAGCTAGGCCAGAGTAGGGACGGC" : PBM binding z-score at minimum 0.8?
Completion: not met

Prompt: Evaluate "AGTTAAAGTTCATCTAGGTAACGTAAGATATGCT" : PBM binding z-score at minimum 0.8?
Completion: met

Prompt: Evaluate "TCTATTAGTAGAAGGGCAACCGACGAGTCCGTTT" : PBM binding z-score at minimum 0.8?
Completion: not met
